Data provenance is patent US20230295310A1.

The entries below are paired with their reported Binding (FOI).
Molecular target: T1, human CD3 expressed on cells (Jurkat cells; human primary T cells) (human, UniProt P07766 23-207; P04234 22-171; P09693 23-182)
T1 construct: whole, on cells
T1 sequence (P07766 23-207, chain 1 of 3): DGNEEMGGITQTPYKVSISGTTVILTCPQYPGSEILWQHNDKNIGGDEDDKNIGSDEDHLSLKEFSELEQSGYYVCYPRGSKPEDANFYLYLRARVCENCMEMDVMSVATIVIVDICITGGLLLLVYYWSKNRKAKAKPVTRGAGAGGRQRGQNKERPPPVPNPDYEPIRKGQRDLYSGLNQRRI
T1 sequence (P04234 22-171, chain 2 of 3): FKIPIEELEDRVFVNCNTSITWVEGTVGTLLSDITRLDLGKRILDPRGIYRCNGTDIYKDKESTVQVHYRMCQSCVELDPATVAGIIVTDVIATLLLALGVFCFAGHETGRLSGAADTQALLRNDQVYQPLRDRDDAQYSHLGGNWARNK
T1 sequence (P09693 23-182, chain 3 of 3): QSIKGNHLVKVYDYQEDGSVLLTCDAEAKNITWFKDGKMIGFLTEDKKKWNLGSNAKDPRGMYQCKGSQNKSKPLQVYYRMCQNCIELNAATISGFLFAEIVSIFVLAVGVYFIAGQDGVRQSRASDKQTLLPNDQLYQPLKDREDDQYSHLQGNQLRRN
Assay: flow cytometry, 25 nM, human primary T cells
Description: Purified antibodies were confirmed to bind CD3 expressed on cells using the CytoFLEX S or LX flow cytometers (Beckman Coulter). Antibodies were diluted to 25 nM in FACS buffer (PBS+2% FBS) and were incubated with CD3-expressing cells for 30 minutes at 4° C. […] The median fluorescence intensity of the binding signal for each antibody was normalized to the isotype control to obtain a fold over isotype value. An antibody with a fold over isotype (FOI) of ≥10 was considered to be positive for binding.
Endpoint label: Binding (FOI)

[[record]]
binder = "mAb 238 (antibody, V domains shown, VH/VL only) VH: EVQLLESGGDLVQPGGSLRLTCAASGFTFRSYAMNWVRQAPGKGLEWVSTISSRGDTTNYADSVKGRFTISRDTSKNTLYLQMDNLRADDTAVYYCSKMFSYYYYYMDVWGKGTTVTVSS VL: SYELTQPLSVSVALGQTARITCGGNNIGSKDVHWYQQKPGQAPVLVIYRDSNRPSGIPERFSGSNSGNTATLTISRAQAGDEADYYCQVWDSSTAVFGGGTQLTAL"
endpoint_label = "Binding (FOI)"
val = 266

[[record]]
binder = "mAb 228 (antibody, V domains shown, VH/VL only) VH: EVQLLESGGGLVQPGGSLRLSCAASGFTFSNYAMNWVRQAPGKGLEWVSTISGSGGGKYYADSVKGRFTISRDNSKNTLYLHMNSLRAEDTAVYYCAKDPVQDRYYFYYYYMDVWGKGTTVTVSS VL: EIVLTQSPDFQSVTPKEKVTITCRASQSIGSSLHWYQQKPDQSPKLLIKYASQSISGVPSRFSGSGSGTDFTLTINSLEAEDAAAYYCHQSSSLPHTFGQGTKLEIK"
endpoint_label = "Binding (FOI)"
val = 105

[[record]]
binder = "mAb 266 (antibody, V domains shown, VH/VL only) VH: QVQLQQSGPGLVKPSQTLSLTCAISGDSVSSNYASWNWIRQSPSRGLEWLGRTYYRSKWYIDFAVSVKSRLTINADTSKNQFSLHLRSVTPEDTAIYFCAREANGRGYFYYMDVWGKGTTVTVSS VL: EIVLTQSPDFQSVTPKEKVTITCRASQSIGSSLHWYQQKPDQSPKLLIKYASQSISGVPSRFSGSGSGTVFTLTINSLEAEDAAAYFCHQSSGSPHTFGGGTKVEIK"
endpoint_label = "Binding (FOI)"
val = 71.9

